These measurements were taken from patent US20180044434A1.

molecular target: T1, Ala mutant having 3-amino acid substitution, SEQ ID NO: 44; assay: ELISA, coated peptide
T1 peptide: AAAMDDQWMQDEMEIGY
Overview of recorded OD 490/630 nm for various binders
Answer as a number with no unit attached.

| binder | OD 490/630 nm |
| --- | --- |
| H7 (antibody, V domains shown, Chicken variable regions in a mouse chimeric antibody (IgG1); also called anti-PAD4 antibody H7) VH: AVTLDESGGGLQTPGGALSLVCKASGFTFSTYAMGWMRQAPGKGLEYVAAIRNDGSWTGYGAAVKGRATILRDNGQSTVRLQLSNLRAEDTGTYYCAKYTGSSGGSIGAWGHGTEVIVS VL: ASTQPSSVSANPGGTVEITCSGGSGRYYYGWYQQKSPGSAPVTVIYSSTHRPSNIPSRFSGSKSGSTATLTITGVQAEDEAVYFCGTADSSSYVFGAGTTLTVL | 1.9 |
| G9 (antibody, V domains shown, Chicken variable regions in a mouse chimeric antibody (IgG1); also called anti-PAD4 antibody G9) VH: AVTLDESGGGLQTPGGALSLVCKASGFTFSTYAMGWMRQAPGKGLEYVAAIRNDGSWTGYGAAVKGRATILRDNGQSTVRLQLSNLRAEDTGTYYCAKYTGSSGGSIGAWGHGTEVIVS VL: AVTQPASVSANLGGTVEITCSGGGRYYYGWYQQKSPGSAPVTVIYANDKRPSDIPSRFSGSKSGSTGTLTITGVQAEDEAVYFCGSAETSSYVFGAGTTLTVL | 1.92 |

// next item, OD 490/630 nm requested
Provide only the value of recorded OD 490/630 nm for A11 (antibody, V domains shown, Chicken variable regions in a mouse chimeric antibody (IgG1); also called anti-PAD4 antibody A11) VH: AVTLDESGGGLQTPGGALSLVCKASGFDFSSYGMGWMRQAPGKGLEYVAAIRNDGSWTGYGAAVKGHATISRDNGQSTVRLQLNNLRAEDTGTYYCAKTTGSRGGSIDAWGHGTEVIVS VL: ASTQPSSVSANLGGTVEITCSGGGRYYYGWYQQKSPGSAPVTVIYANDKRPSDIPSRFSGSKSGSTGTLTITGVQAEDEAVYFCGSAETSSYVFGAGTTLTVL 1.98
